Test system: MDA-MB-231 breast
test.method.notes: NCI-60 one-dose screen, 48 h (100 = growth as untreated, 0 = no growth, -100 = all killed)
reported.conditions: 10 µM unless noted
The panel holds about 83,000 compounds, 20% with a hit somewhere; the sample as a whole holds those more often. The source made the active and inactive calls. The calls were made as follows: active = growth percent below 10; inactive = the rest.
Each entry below carries its reported growth.

Known growth results, listed for orientation:
[
  {
    "item.smiles": "Cc1ccc(S(=O)(=O)Oc2cc(OS(=O)(=O)c3ccc(C)cc3)cc(OS(=O)(=O)c3ccc(C)cc3)c2)cc1",
    "value.observed": "92.2% (inactive)"
  },
  {
    "item.smiles": "CCc1ccccc1-n1c(-c2ccc(Cl)cc2)cc(-c2ccc(OC)cc2)c(C#N)c1=O",
    "value.observed": "92.7% (inactive)"
  },
  {
    "item.smiles": "COc1cccc(-c2nn(-c3ccccc3)cc2-c2ccnc(NCCCNC(=O)c3cccc(C(F)(F)F)c3)c2)c1",
    "value.observed": "23.6% (inactive)"
  },
  {
    "item.smiles": "CN1CCN(C(=O)c2c3c(n4ccccc24)C(=O)c2ncccc2C3=O)CC1",
    "value.observed": "79.5% (inactive)"
  },
  {
    "item.smiles": "Cc1ccc(Cl)c(NS(=O)(=O)c2ccc(-c3cnc(C4CC4)o3)cc2)c1",
    "value.observed": "32.5% (inactive)"
  }
]

Given "S=C(Cc1ccc2c(c1)CCCC2)N1CCOCC1" , state its recorded growth.
103% (inactive)

Same for "COc1cc2nc(Cl)nc(Nc3ccc(S(=O)(=O)Nc4nccs4)cc3)c2cc1OC"
109% (inactive)

Just for reference, PubChem BioAssay (NCI) is where these values come from.
